Molecular target: T7 RNA Polymerase (Escherichia phage T7, UniProt P00573)
Sequence (P00573 whole entry): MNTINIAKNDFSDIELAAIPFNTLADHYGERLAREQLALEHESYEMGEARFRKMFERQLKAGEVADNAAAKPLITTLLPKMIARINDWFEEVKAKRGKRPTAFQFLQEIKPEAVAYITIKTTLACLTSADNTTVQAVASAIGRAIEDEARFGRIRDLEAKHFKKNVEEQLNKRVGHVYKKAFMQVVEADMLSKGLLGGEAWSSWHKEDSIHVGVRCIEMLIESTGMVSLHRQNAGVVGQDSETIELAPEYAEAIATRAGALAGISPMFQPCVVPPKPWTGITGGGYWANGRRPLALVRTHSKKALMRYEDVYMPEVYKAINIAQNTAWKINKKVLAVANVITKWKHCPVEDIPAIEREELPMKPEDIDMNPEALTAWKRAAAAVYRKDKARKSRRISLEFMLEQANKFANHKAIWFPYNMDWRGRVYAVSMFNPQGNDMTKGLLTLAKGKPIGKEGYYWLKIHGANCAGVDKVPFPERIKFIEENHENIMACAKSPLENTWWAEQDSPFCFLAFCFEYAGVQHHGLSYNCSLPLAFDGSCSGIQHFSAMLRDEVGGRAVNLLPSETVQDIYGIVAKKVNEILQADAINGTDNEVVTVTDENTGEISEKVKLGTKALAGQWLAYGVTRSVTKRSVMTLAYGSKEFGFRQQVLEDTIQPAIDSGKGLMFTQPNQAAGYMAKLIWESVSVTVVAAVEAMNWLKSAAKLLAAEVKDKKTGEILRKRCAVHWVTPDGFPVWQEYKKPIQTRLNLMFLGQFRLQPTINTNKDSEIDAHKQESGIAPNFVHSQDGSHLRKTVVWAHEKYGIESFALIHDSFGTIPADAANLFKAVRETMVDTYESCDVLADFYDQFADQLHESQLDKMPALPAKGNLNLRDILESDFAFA
Test: Detection of the efficiency of mRNA capping synthesis (in vitro transcription, product yield)
Assay type: biochemical
Conditions: 20 µL mRNA synthesis reaction system, test compound 4 mM, 37°C 2 to 3 h (Table 2)
PARAMETER_MEASURED: Final product mass (µg)
Numeric answer only, unit µg assumed.

stdin: # value lookup — system T7 RNA Polymerase (Escherichia phage T7, UniProt P00573), readout Final product mass, item `CNc1ccccc1C(=O)NC[C@H]1[C@@H](O)[C@H](n2c[n+](C)c3c(=O)[nH]c(N)nc32)O[C@@H]1COP(=O)([O-])OP(=O)(O)OP(=O)(O)OC[C@H]1O[C@@H](n2cnc3c(N)ncnc32)[C@H](OC)[C@@H]1OP(=O)(O)OC[C@H]1O[C@@H](n2cnc3c(=O)[nH]c(N)nc32)[C@H](O)[C@@H]1O`
stdout: 88

stdin: # value lookup — system T7 RNA Polymerase (Escherichia phage T7, UniProt P00573), readout Final product mass, item `CNc1ccccc1C(=O)NCCCCCC(=O)NC[C@H]1[C@@H](O)[C@H](n2c[n+](C)c3c(=O)[nH]c(N)nc32)O[C@@H]1COP(=O)([O-])OP(=O)(O)OP(=O)(O)OC[C@H]1O[C@@H](n2cnc3c(N)ncnc32)[C@H](OC)[C@@H]1OP(=O)(O)OC[C@H]1O[C@@H](n2cnc3c(=O)[nH]c(N)nc32)[C@H](O)[C@@H]1O`
stdout: 91

stdin: # value lookup — system T7 RNA Polymerase (Escherichia phage T7, UniProt P00573), readout Final product mass, item `COCCOCCOCC(=O)NC[C@H]1[C@@H](O)[C@H](n2c[n+](C)c3c(=O)[nH]c(N)nc32)O[C@@H]1COP(=O)([O-])OP(=O)(O)OP(=O)(O)OC[C@H]1O[C@@H](n2cnc3c(N)ncnc32)[C@H](OC)[C@@H]1OP(=O)(O)OC[C@H]1O[C@@H](n2cnc3c(=O)[nH]c(N)nc32)[C@H](O)[C@@H]1O`
stdout: 180

stdin: # value lookup — system T7 RNA Polymerase (Escherichia phage T7, UniProt P00573), readout Final product mass, item `CO[C@@H]1[C@H](OP(=O)(O)OC[C@H]2O[C@@H](n3cnc4c(=O)[nH]c(N)nc43)[C@H](O)[C@@H]2O)[C@@H](COP(=O)(O)OP(=O)(O)OP(=O)([O-])OC[C@H]2O[C@@H](n3c[n+](C)c4c(=O)[nH]c(N)nc43)[C@H](O)[C@@H]2CNC(=O)CCCCCNC(=O)CCCC[C@@H]2SC[C@@H]3NC(=O)N[C@@H]32)O[C@H]1n1cnc2c(N)ncnc21`
stdout: 137

stdin: # value lookup — system T7 RNA Polymerase (Escherichia phage T7, UniProt P00573), readout Final product mass, item `CO[C@@H]1[C@H](OP(=O)([O-])OC[C@H]2O[C@@H](n3cnc4c(=O)[nH]c(N)nc43)[C@H](O)[C@@H]2O)[C@@H](COP(=O)(O)OP(=O)(O)OP(=O)(O)OC[C@H]2O[C@@H](n3c[n+](C)c4c(=O)[nH]c(N)nc43)[C@H](O)[C@@H]2CC(=O)NCCNC(=O)CCCC[C@@H]2SC[C@@H]3NC(=O)N[C@@H]32)O[C@H]1n1cnc2c(N)ncnc21`
stdout: 96

stdin: # value lookup — system T7 RNA Polymerase (Escherichia phage T7, UniProt P00573), readout Final product mass, item CO[C@@H]1[C@H](OP(=O)([O-])OC[C@H]2O[C@@H](n3cnc4c(=O)[nH]c(N)nc43)[C@H](O)[C@@H]2O)[C@@H](COP(=O)(O)OP(=O)(O)OP(=O)(O)OC[C@H]2O[C@@H](n3c[n+](C)c4c(=O)[nH]c(N)nc43)[C@H](O)[C@@H]2OC)O[C@H]1n1cnc2c(N)ncnc21 [Compound N-7413, reference compound]
stdout: 122

stdin: # value lookup — system T7 RNA Polymerase (Escherichia phage T7, UniProt P00573), readout Final product mass, item `CO[C@@H]1[C@H](OP(=O)([O-])OC[C@H]2O[C@@H](n3cnc4c(=O)[nH]c(N)nc43)[C@H](O)[C@@H]2O)[C@@H](COP(=O)(O)OP(=O)(O)OP(=O)(O)OC[C@H]2O[C@@H](n3c[n+](C)c4c(=O)[nH]c(N)nc43)[C@H](O)[C@@H]2Cn2cc(CNC(=O)CCCC[C@@H]3SC[C@@H]4NC(=O)N[C@@H]43)nn2)O[C@H]1n1cnc2c(N)ncnc21`
stdout: 126

stdin: # value lookup — system T7 RNA Polymerase (Escherichia phage T7, UniProt P00573), readout Final product mass, item `CO[C@@H]1[C@H](OP(=O)(O)OC[C@H]2O[C@@H](n3cnc4c(=O)[nH]c(N)nc43)[C@H](O)[C@@H]2O)[C@@H](COP(=O)(O)OP(=O)(O)OP(=O)([O-])OC[C@H]2O[C@@H](n3c[n+](C)c4c(=O)[nH]c(N)nc43)[C@H](O)[C@@H]2CNC(=O)CCCC[C@@H]2SC[C@@H]3NC(=O)N[C@@H]32)O[C@H]1n1cnc2c(N)ncnc21`
stdout: 139
